Source of measurements: ChEMBL document CHEMBL4673182

# test.summary: Antiproliferative activity against human WM983B cells incubated for 72 hrs with replacement of fresh medium containing compounds for every 24 hrs by picogreen staining based fluorescence assay
# Assay type: functional, cell-based
assay.metric: pIC50
The value called pIC50 is obtained by taking minus log10 of the concentration in mol/L.

QUERY: Name the recorded pIC50 of the compound listed here: Nc1ccccc1NC(=O)c1ccc(CCCC(=O)Nc2ccc(C3CC3N)cc2)cc1 (stereo unspecified)
RESULT: 6.70

====

# subject.of.test: Lysine-specific histone demethylase 1A (Homo sapiens, UniProt O60341)
# test.summary: Inhibition of LSD1 (unknown origin) (157 to 852 residues) expressed in Escherichia coli BL21(DE) cells using H3K4me2 as substrate by horseradish peroxidase-coupled amplex red reagent-based fluorometric assay
assay.metric: IC50 (µM)
State the answer as a number, implicitly in µM.

QUERY: Fetch value of IC50 on Lysine-specific histone demethylase 1A (Homo sapiens, UniProt O60341) for `C#CCSc1nc(NNC(N)=S)c(C#N)c(-c2cccs2)n1` .
RESULT: 0.34

====

# subject.of.test: LSD1/CoREST complex (Homo sapiens)
# test.summary: Inhibition of LSD1/FLAG-tagged CoREST (unknown origin) expressed in HEK293F cells using diMeK4H3(1 to 21 residues) as substrate preincubated for 5 mins followed by substrate addition by horseradish peroxidase-coupled assay
assay.metric: pIC50
The value called pIC50 is obtained by taking minus log10 of the concentration in mol/L.

QUERY: Name the recorded pIC50 of the compound listed here: Nc1ccccc1NC(=O)c1ccc(CCCC(=O)Nc2ccc(C3CC3N)cc2)cc1 (stereo unspecified)
RESULT: 6.48

====

# subject.of.test: Lysine-specific histone demethylase 1A (Homo sapiens, UniProt O60341)
# test.summary: Inhibition of LSD1 (unknown origin) expressed in human MGC-803 cells incubated for 5 days by DAPI staining based immunofluorescence method
# Type: cell-based
assay.metric: IC50

QUERY: Name the recorded IC50 of the molecule listed here: `O=C(O)[C@H]1O[C@@H](Oc2cc3oc(-c4ccccc4)cc(=O)c3c(O)c2O)[C@H](O)[C@@H](O)[C@@H]1O`
RESULT: 3.01 µM

====

Exercise: state measured pIC50 for each of the molecules provided.
# subject.of.test: UniProtKB O60341
# test.summary: Inhibition of human LSD1 (158 to end residues) expressed in Escherichia coli preincubated for 15 mins followed by H3K4me2 peptide addition and measured after 60 mins by alphaLISA assay
The value called pIC50 is obtained by taking minus log10 of the concentration in mol/L.

QUERY: Name the recorded pIC50 of the molecule listed here: `O=C(Cc1cccc(CO)c1COc1ccc(OCC2CCNCC2)cc1)c1cc2ccccc2[nH]1`
RESULT: 5.40

QUERY: Name the recorded pIC50 of the molecule listed here: CC(Nc1cc(Cl)ccc1O)C(=O)Nc1cccc(S(=O)(=O)N2CCOCC2)c1 (configuration not stated)
RESULT: 5.16
